# TARGET OF ASSAY: PARG (Homo sapiens, UniProt Q86W56)
# Sequence (Q86W56 whole entry): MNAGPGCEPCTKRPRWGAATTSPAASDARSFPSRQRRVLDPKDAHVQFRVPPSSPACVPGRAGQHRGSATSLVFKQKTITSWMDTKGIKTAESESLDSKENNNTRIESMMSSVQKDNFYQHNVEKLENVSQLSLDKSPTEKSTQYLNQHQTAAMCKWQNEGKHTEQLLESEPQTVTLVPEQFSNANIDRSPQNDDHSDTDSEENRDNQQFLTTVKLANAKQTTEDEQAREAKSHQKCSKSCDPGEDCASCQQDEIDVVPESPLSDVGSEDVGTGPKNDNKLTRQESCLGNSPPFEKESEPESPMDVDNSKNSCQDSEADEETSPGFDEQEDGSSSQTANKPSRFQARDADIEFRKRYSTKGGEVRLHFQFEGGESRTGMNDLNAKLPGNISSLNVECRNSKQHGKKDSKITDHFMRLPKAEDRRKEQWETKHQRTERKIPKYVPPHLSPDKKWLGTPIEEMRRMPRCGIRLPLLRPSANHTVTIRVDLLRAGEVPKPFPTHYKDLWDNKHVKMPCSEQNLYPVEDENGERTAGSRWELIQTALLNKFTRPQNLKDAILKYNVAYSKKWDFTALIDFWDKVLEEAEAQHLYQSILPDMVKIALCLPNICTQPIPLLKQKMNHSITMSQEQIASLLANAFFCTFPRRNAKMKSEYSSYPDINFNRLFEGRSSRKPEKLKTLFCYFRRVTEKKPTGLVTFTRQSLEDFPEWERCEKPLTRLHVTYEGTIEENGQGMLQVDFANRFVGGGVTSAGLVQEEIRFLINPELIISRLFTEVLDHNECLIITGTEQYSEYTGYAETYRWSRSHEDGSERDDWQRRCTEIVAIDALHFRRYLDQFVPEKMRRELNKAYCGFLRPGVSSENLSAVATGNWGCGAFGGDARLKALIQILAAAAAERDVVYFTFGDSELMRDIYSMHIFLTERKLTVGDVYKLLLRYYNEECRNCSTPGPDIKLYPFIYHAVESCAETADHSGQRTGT
# PROTOCOL SUMMARY: Biochemical assay (PARG, TFMU-ADPr substrate)
# EXPERIMENTAL CONTEXT: PARG, TFMU-ADPr substrate

>  <MOLECULE>
CC1(NS(=O)(=O)c2cc(N3CCC4(CC3)COC4)c3cnc(-c4nnc(C(F)F)s4)n3c2)COC1

>  <IC50 (nM)>
0.86

$$$$
>  <MOLECULE>
N#CC1(NS(=O)(=O)c2cc(N3CCC(F)(F)CC3)c3cnc(-c4nnc(C(F)F)s4)n3c2)CC1

>  <IC50 (nM)>
8.37

$$$$
>  <MOLECULE>
COC1(C(=O)N2CC=C(c3cc(S(=O)(=O)NC4(C#N)CC4)cn4c(-c5nnc(C(F)(F)F)s5)ncc34)CC2)CC1

>  <IC50 (nM)>
2.09

$$$$
>  <MOLECULE>
Cc1ncc(-c2cnn3c(N4CCN(C(=O)C(C)C)CC4)cc(S(=O)(=O)NC4(C#N)CC4)cc23)s1

>  <IC50 (nM)>
33

$$$$
>  <MOLECULE>
N#CC1(NS(=O)(=O)c2cc(N3CCN(C(=O)C4CCO4)CC3)c3cnc(-c4nnc(C(F)(F)F)s4)n3c2)CC1 (stereo not shown) [Example 300]

>  <IC50 (nM)>
31.6

$$$$
>  <MOLECULE>
COC1(C(=O)N2CCC(c3cc(S(=O)(=O)NC4(C#N)CC4)cn4c(-c5nnc(C(F)(F)F)s5)ncc34)CC2)CC1

>  <IC50 (nM)>
3.31

$$$$
>  <MOLECULE>
COC1(C(=O)N2CCN(c3cc(S(=O)(=O)NC4(C)CC4)cn4c(-c5nnc(C(F)F)s5)ncc34)C[C@H]2CO)CC1

>  <IC50 (nM)>
0.14

$$$$

---

Quick reference: log10(IC50) of the listed items.
# TARGET OF ASSAY: UniProt Q86W56
# PROTOCOL SUMMARY: Biochemical assay (PARG, TFMU-ADPr substrate)
# EXPERIMENTAL CONTEXT: PARG, TFMU-ADPr substrate
READOUT NAME: log10(IC50) (log10 of the value in nM)

>  <MOLECULE>
COC1(C(=O)N2CCN(c3c(F)c(S(=O)(=O)NC4CC4)cn4c(-c5nnc(C(F)(F)F)s5)ncc34)CC2)CC1

>  <log10(IC50)>
0.75

$$$$
>  <MOLECULE>
CN(C)C(=O)C1CCN(c2cc(S(=O)(=O)NC3(C#N)CC3)cn3c(-c4nnc(C(F)F)s4)ncc23)CC1

>  <log10(IC50)>
2.04

$$$$
>  <MOLECULE>
CC(N1CCN(c2cc(S(=O)(=O)NC3(C#N)CC3)cn3c(-c4nnc(C(F)F)s4)ncc23)C[C@H]1C)C(F)(F)F (stereo partly shown)

>  <log10(IC50)>
2.54

$$$$
>  <MOLECULE>
CC1(NS(=O)(=O)c2cc(N3CCC(O)C(O)C3)c3cnc(-c4nnc(C(F)F)s4)n3c2)CC1 (stereo not shown)

>  <log10(IC50)>
0.60

$$$$
>  <MOLECULE>
COc1ccc(C(=O)/C=C/C(=O)N2CCN(c3cc(S(=O)(=O)NC4(C#N)CC4)cn4c(-c5nnc(C(F)(F)F)s5)ncc34)CC2)cc1

>  <log10(IC50)>
2.32

$$$$
>  <MOLECULE>
CC(C)C(=O)N1CCN(c2cc(S(=O)(=O)NC3CC3)cn3c(-c4nnc(C(F)(F)F)s4)nnc23)CC1

>  <log10(IC50)>
1.58

$$$$
>  <MOLECULE>
CN1CC(C)(C(=O)N2CCN(c3cc(S(=O)(=O)NC4(C)CC4)cn4c(-c5nnc(C(F)(F)F)s5)ncc34)CC2)C1

>  <log10(IC50)>
-0.17

$$$$
